Numbers sourced from PubChem BioAssay (NCI).

System: ACHN renal
Test: NCI tumour cell line growth inhibition, 48 h
QUANTITY_NAME: TGI

Form field TGI, entry COC(O)C(=O)c1ccc2c(c1)CC1(C2)Cc2cc3c(cc2C1=O)CCC3 (configuration not stated) : 30.6 µM

Field TGI (entry CC1CCCC(C(O)CC2CC(=O)NC(=O)C2)C1O (configuration not stated) ) reads > 100 µM

Record C=CC(=O)Nc1cc(C)ccc1Nc1nc(Nc2cc(OC)ncc2C)ncc1C(F)(F)F , field TGI: 2.07 µM

The compound listed as [N-]=[N+]=NC(c1cn(C2CC(O)C(CO)O2)c(=O)[nH]c1=O)C(Cl)I (configuration not stated) has a reported TGI of > 100 µM

Entry COc1cc(-c2cc(O)c(-c3ccc4ccccc4n3)c(=O)[nH]2)cc(OC)c1OC ; TGI = > 89.8 µM

Measured TGI of CN1C(=O)C2C3C=C4c5ccccc5N(c5ccccc5)C4(C2C1=O)[C@H]1C(=O)N(C)C(=O)[C@@H]31 (some centres not stated) : > 100 µM

Sure, the documented TGI for COc1ccc(CCCNC(=O)c2cc(OC)c(OC)cc2CCO)cc1OC is > 100 µM

Recorded result, O=c1[nH]c(=S)[nH]c2c1CN(CCCN1CCOCC1)CN2 , TGI: 92 µM

Documented TGI of O=C(c1ccccc1)c1ccc2[nH]c(-c3c(Cl)c(Cl)c(Cl)c(Cl)c3C(=O)N/N=C/c3cccc(Oc4ccccc4)c3)nc2c1 : > 100 µM

Field TGI (entry CC1=C(O)C(=O)C2C(=O)C1C1Cc3ccccc3C21 (configuration not stated) ) reads > 100 µM

Kindly note the recorded TGI for CN(/N=C/c1cccc2cccnc12)c1ccc(Cl)cc1[N+](=O)[O-] , which is > 100 µM

// field: TGI; key: Cn1cnc([N+](=O)[O-])c1Sc1nc(N)nc2c1ncn2C1CC(O)C(CO)O1 (configuration not stated) ; value = > 92.8 µM

The compound identified as COc1c2ccoc2c(OC)c2oc(=O)ccc12 registered its TGI at > 100 µM

The recorded TGI for entry CCN(CC)CC(O)CNc1c2ccc([N+](=O)[O-])cc2nc2cc(OC)c(OC)cc12 (configuration not stated) equals 2.36 µM

In plain terms, CC(C)[C@H](NC(=O)[C@H](N)Cc1ccc(N(CCCl)CCCl)cc1)C(=O)O has a documented TGI of > 100 µM

Entry CNC(=O)c1ccccc1Nc1nc(Nc2cc(OC)c(OC)c(OC)c2)ncc1Br , TGI reported as 15.6 µM

Record summary for Oc1ccc2ccccc2c1N=Nc1ccsc1 : reported TGI = > 100 µM

Recorded TGI (compound [N-]=[N+]=NCCCCCC(=O)OC(C(=O)c1ccccc1)c1cccc(OCC(=O)NCCOCCOCCNC(=O)CCCC[C@@H]2SC[C@@H]3NC(=O)N[C@@H]32)c1 (some centres not stated) ): > 100 µM

The recorded TGI for entry CCC(=O)Nc1ccc(NC(C#N)c2cccc(Oc3ccccc3)c2)cc1 (configuration not stated) equals > 100 µM

Please fill in: TGI reported for CN(Cc1ccccc1)c1ccc(CO)c(Cl)c1 = > 100 µM

Record summary for CC1SCc2nc3ccccc3n21 (configuration not stated) : reported TGI = > 100 µM

// recorded TGI for S=C1CCSc2c(ccc3ccccc23)N1 : > 100 µM

Per the records, this compound ( COC(=O)c1cc(O)c2cc3c(cc2c1-c1cc(OC)c(OC)c(OC)c1)OCO3 ) has TGI equal to > 100 µM

Form field TGI, entry CC12CCC3(OCCO3)C(OC(=O)c3ccccc3)=C1CCC21OCCO1 (configuration not stated) : > 100 µM

According to the records, this compound CC(C)(C)c1cc(-n2c(-c3ccc(Cl)cc3)nc3cc(C(=O)Nc4ccc(Cl)cc4)ccc32)n[nH]1 displays TGI of > 100 µM

The compound CC1(C)Cc2nc3c(cc2C(=O)C1C=N/C(C#N)=C(\N)C#N)C(=O)C(C=N/C(C#N)=C(\N)C#N)C(C)(C)C3 (configuration not stated) showed TGI equal to 5.87 µM

Record summary for COc1ccc(N2C(=O)C3c4[nH]c5ccc(Br)cc5c4C4CCC(C(C)(C)C)CC4C3C2=O)cc1 (configuration not stated) : reported TGI = > 100 µM
